Origin of the recorded values: PubChem BioAssay (EPA / NIEHS)

Assay: APR_HepG2_MitoMass_24hr: Apredica 24-hour HepG2 Assay for Mitochondrial Mass (AID 2282912)
Conditions: high-content imaging, actives raise or lower the signal
Protocol: APR_HepG2_24hr is a cell-based, multiplexed-readout assay that uses HepG2, a human liver cell line, with measurements taken at 24 hours after chemical dosing in a 384-well plate.APR_HepG2_MitoMass_24hr is one of 10 assay component(s) measured or calculated from the APR_HepG2_24hr assay. […] This assay endpoint, APR_HepG2_MitoMass_24hr, was analyzed with bidirectional fitting relative to DMSO as the negative control and baseline of activity. […]
Active and inactive are the calls of the source. Rule for the calls: active = hit-call score of the fitted dose curve at least 0.9, where 1 is the maximum; inactive = score below 0.9.
// allowed return values: active, inactive

Query string: GET /call?item= CC1=C(/C=C/C(C)=C/C=C/C(C)=C/CO)C(C)(C)CCC1 returns the recorded outcome of this test.
Result string: active

Query string: GET /call?item= Cc1cccc(Nc2cc(Cl)nc(SCC(=O)O)n2)c1C returns the recorded outcome of this test.
Result string: inactive

Query string: GET /call?item= Cc1cc(=O)[nH]c(=S)[nH]1 returns the recorded outcome of this test.
Result string: inactive

Query string: GET /call?item= CCCCCCCCCCCCCO returns the recorded outcome of this test.
Result string: inactive

Query string: GET /call?item= CN[C@H]1CC[C@@H](c2ccc(Cl)c(Cl)c2)c2ccc(S(N)(=O)=O)cc21 returns the recorded outcome of this test.
Result string: inactive

Query string: GET /call?item= NC(=O)Cn1c(=O)cc(CCN2CCN(c3nccc4sccc34)CC2)c2ccc(F)cc21 returns the recorded outcome of this test.
Result string: inactive

Query string: GET /call?item= c1cc(-c2ccncc2)ccn1 returns the recorded outcome of this test.
Result string: inactive

Query string: GET /call?item= COc1cccc2c1C(=O)c1c(O)c3c(c(O)c1C2=O)C[C@@](O)(C(=O)CO)C[C@@H]3O[C@H]1C[C@H](N)[C@H](O)[C@H](C)O1 returns the recorded outcome of this test.
Result string: active

Query string: GET /call?item= Cc1ccc(C)c(O)c1C returns the recorded outcome of this test.
Result string: inactive

Query string: GET /call?item= Cc1oc(-c2ccccc2)nc1CCOc1cccc2c1ccn2CCC(=O)O returns the recorded outcome of this test.
Result string: inactive

Query string: GET /call?item= CC(=O)OCCOCCOCCOC(C)=O returns the recorded outcome of this test.
Result string: inactive

Query string: GET /call?item= COc1cc(S(=O)(=O)O)c(C)cc1N=Nc1c(O)ccc2cc(S(=O)(=O)O)ccc12 returns the recorded outcome of this test.
Result string: inactive

Query string: GET /call?item= Cc1cccc(C)c1O returns the recorded outcome of this test.
Result string: inactive

Query string: GET /call?item= C[Si]1(C)O[Si](C)(C)O[Si](C)(C)O[Si](C)(C)O1 returns the recorded outcome of this test.
Result string: inactive

Query string: GET /call?item= CCCCCCCCCCO returns the recorded outcome of this test.
Result string: inactive

Query string: GET /call?item= Cc1ccc(C)c(C)c1 returns the recorded outcome of this test.
Result string: inactive

Query string: GET /call?item= CCCCCCOCCO returns the recorded outcome of this test.
Result string: inactive

Query string: GET /call?item= CCCCOC(=O)CCCCCCCCC(=O)OCCCC returns the recorded outcome of this test.
Result string: inactive

Query string: GET /call?item= CCCCCCCC=O returns the recorded outcome of this test.
Result string: inactive

Query string: GET /call?item= COc1ccc2c(c1)c(CC(=O)O)c(C)n2C(=O)c1ccc(Cl)cc1 returns the recorded outcome of this test.
Result string: inactive

Query string: GET /call?item= CC(C)(C)c1cc(O)c(C(C)(C)C)cc1O returns the recorded outcome of this test.
Result string: active

Query string: GET /call?item= NS(=O)(=O)c1cc2c(cc1Cl)NCNS2(=O)=O returns the recorded outcome of this test.
Result string: inactive

Query string: GET /call?item= Cc1ccccc1Cl returns the recorded outcome of this test.
Result string: inactive

Query string: GET /call?item= COC(=O)c1ccc(O)cc1 returns the recorded outcome of this test.
Result string: inactive

Query string: GET /call?item= CCCCC(CC)COC(=O)CC(C(=O)OCC(CC)CCCC)S(=O)(=O)O (stereo unspecified) returns the recorded outcome of this test.
Result string: inactive

Query string: GET /call?item= Oc1ccc2c(c1)OC[C@@H](N1CCC(O)(c3ccc(F)cc3)CC1)[C@H]2O returns the recorded outcome of this test.
Result string: inactive

Query string: GET /call?item= COc1cc(-c2nc(NC(=O)c3cc4cc(C)cc(C)c4n3CC(=O)O)sc2CCC2CCCCC2)c(OC)cc1Cl returns the recorded outcome of this test.
Result string: active

Query string: GET /call?item= C1CCC(SSC2CCCCC2)CC1 returns the recorded outcome of this test.
Result string: inactive

Query string: GET /call?item= Cc1ccc2ncccc2c1 returns the recorded outcome of this test.
Result string: inactive

Query string: GET /call?item= CC1(C)CC(N=C=O)CC(C)(CN=C=O)C1 (stereo unspecified) returns the recorded outcome of this test.
Result string: inactive

Query string: GET /call?item= CCCCCCCCCCCCCCCC returns the recorded outcome of this test.
Result string: inactive

Query string: GET /call?item= Cc1c(C(=O)O)c(O)cc2c1C(=O)c1c(O)c([C@@H]3O[C@H](CO)[C@@H](O)[C@H](O)[C@H]3O)c(O)c(O)c1C2=O returns the recorded outcome of this test.
Result string: inactive

Query string: GET /call?item= COCCOC[C@H](CC1(C(=O)NC2CCC(C(=O)O)CC2)CCCC1)C(=O)Oc1ccc2c(c1)CCC2 (stereo partly specified) returns the recorded outcome of this test.
Result string: inactive

Query string: GET /call?item= O=C(OCCCCCOC(=O)c1ccccc1)c1ccccc1 returns the recorded outcome of this test.
Result string: inactive

Query string: GET /call?item= Clc1cc(Cl)c(Cl)cc1Cl returns the recorded outcome of this test.
Result string: inactive

Query string: GET /call?item= CC(CO)OC(C)CO (stereo unspecified) (tested in a mixture with another compound) returns the recorded outcome of this test.
Result string: inactive

Query string: GET /call?item= CCc1c(C(=O)NN2CCCCC2)nn(-c2ccc(Cl)cc2Cl)c1-c1ccc(Br)cc1 returns the recorded outcome of this test.
Result string: active

Query string: GET /call?item= Cc1cc(NC(=O)C(=O)O)cc(C)c1Oc1ccc(O)c2c1CCC2 returns the recorded outcome of this test.
Result string: inactive

Query string: GET /call?item= CCCCCCCCCCC returns the recorded outcome of this test.
Result string: inactive

Query string: GET /call?item= Nc1ccc2c(c1)C(=O)c1ccccc1C2=O returns the recorded outcome of this test.
Result string: inactive

Query string: GET /call?item= CCCc1cc(=O)[nH]c(=S)[nH]1 returns the recorded outcome of this test.
Result string: inactive

Query string: GET /call?item= Nc1nc(N)c2nc(CNc3ccc(C(=O)N[C@@H](CCC(=O)O)C(=O)O)cc3)cnc2n1 returns the recorded outcome of this test.
Result string: inactive

Query string: GET /call?item= CCNc1cccc(C)c1 returns the recorded outcome of this test.
Result string: inactive

Query string: GET /call?item= CCCCCCCCCCCCCCCCCC(=O)O returns the recorded outcome of this test.
Result string: inactive

Query string: GET /call?item= O=[N+]([O-])C(CO)(CO)CO returns the recorded outcome of this test.
Result string: inactive

Query string: GET /call?item= COc1ccc(S(=O)(=O)N2C(=O)[C@@](c3ccccc3OC)(N3C[C@H](O)C[C@H]3C(=O)N(C)C)c3cc(Cl)ccc32)c(OC)c1 returns the recorded outcome of this test.
Result string: active

Query string: GET /call?item= CCOc1ccc2c(c1)C(C)=CC(C)(C)N2 returns the recorded outcome of this test.
Result string: inactive

Query string: GET /call?item= CC(=O)OC/C=C(\C)CCC=C(C)C returns the recorded outcome of this test.
Result string: inactive

Query string: GET /call?item= COCCOCCOC returns the recorded outcome of this test.
Result string: inactive

Query string: GET /call?item= CC=Cc1ccc(O)c(OC)c1 returns the recorded outcome of this test.
Result string: inactive

Query string: GET /call?item= O=c1[nH]cc(F)c(=O)[nH]1 returns the recorded outcome of this test.
Result string: inactive

---

target: Estrogen receptor (Homo sapiens) (UniProt P03372); assay: OT_ER_ERaERa_1440: Odyssey Thera (OT) 24-hour HEK293T Protein-Complementation Assay for Estrogen Receptor-alpha/-alpha Homodimer (AID 2283349);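 note: hits raise fluorescence above DMSO for agonists and antagonists alike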
Sequence (P03372 whole entry, looked up): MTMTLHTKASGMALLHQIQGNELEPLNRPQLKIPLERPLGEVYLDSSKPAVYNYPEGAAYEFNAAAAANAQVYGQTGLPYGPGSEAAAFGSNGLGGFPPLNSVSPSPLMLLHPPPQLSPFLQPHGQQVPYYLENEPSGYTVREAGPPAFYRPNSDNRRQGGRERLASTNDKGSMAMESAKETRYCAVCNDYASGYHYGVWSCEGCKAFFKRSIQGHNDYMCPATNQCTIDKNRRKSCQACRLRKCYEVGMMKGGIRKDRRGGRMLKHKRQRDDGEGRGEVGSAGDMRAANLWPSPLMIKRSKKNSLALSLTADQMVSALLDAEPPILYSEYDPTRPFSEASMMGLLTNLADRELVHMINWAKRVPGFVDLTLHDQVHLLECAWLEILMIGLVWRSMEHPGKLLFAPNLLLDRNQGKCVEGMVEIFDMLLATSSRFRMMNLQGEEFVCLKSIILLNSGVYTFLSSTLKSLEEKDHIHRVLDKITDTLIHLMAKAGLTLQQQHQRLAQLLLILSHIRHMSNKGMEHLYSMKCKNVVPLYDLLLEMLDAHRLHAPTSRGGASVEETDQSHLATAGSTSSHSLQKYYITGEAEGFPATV
Calls of active or inactive are those of the source. Rule for the calls: active = hit-call score of the fitted dose curve at least 0.9, where 1 is the maximum; inconclusive = response in the unintended direction; inactive = score below 0.9.
// allowed return values: Y for active, N for inactive

Query string: GET /call?item= Cc1cc(=O)[nH]c(=S)[nH]1 returns the recorded outcome of this test.
Result string: N

Query string: GET /call?item= Cc1cc(NC(=O)C(=O)O)cc(C)c1Oc1ccc(O)c2c1CCC2 returns the recorded outcome of this test.
Result string: N

Query string: GET /call?item= NCCO returns the recorded outcome of this test.
Result string: N

Query string: GET /call?item= CCCCN(CCCC)CCCC returns the recorded outcome of this test.
Result string: N

Query string: GET /call?item= CNC(=O)[C@H]1O[C@@H](n2cnc3c(NCc4cc(Cl)ccc4OCc4cc(C)no4)ncnc32)[C@H](O)[C@@H]1N returns the recorded outcome of this test.
Result string: Y

Query string: GET /call?item= Nc1ccc(S(=O)(=O)c2ccc(N)cc2)cc1 returns the recorded outcome of this test.
Result string: N

Query string: GET /call?item= CCCCCCCCCCO returns the recorded outcome of this test.
Result string: N

Query string: GET /call?item= Cc1cccc(Nc2cc(Cl)nc(SCC(=O)O)n2)c1C returns the recorded outcome of this test.
Result string: N

Query string: GET /call?item= Cc1nc(-c2ccc3c(c2)CCN(CCC2CCC(NC(=O)/C=C/c4ccc(F)cc4)CC2)CC3)no1 (configuration not stated) returns the recorded outcome of this test.
Result string: N

Query string: GET /call?item= COc1cc(-c2nc(NC(=O)c3cc4cc(C)cc(C)c4n3CC(=O)O)sc2CCC2CCCCC2)c(OC)cc1Cl returns the recorded outcome of this test.
Result string: N

Query string: GET /call?item= O=C(O)Cc1ccccc1Nc1c(Cl)cccc1Cl returns the recorded outcome of this test.
Result string: N

Query string: GET /call?item= Clc1cc(Cl)c(Cl)cc1Cl returns the recorded outcome of this test.
Result string: N

Query string: GET /call?item= Cc1cccc(C)c1O returns the recorded outcome of this test.
Result string: N

Query string: GET /call?item= CC(C)c1ccc(C(=O)N=C(N)N)cc1S(C)(=O)=O returns the recorded outcome of this test.
Result string: N

Query string: GET /call?item= COC(=O)c1ccc(O)cc1 returns the recorded outcome of this test.
Result string: N

Query string: GET /call?item= Oc1ccc2c(c1)OC[C@@H](N1CCC(O)(c3ccc(F)cc3)CC1)[C@H]2O returns the recorded outcome of this test.
Result string: N

Query string: GET /call?item= OC[C@@H](O)[C@@H](O)[C@H](O)[C@H](O)CO returns the recorded outcome of this test.
Result string: N

Query string: GET /call?item= COc1cc(C=O)ccc1O returns the recorded outcome of this test.
Result string: N

Query string: GET /call?item= CC=Cc1ccc(O)c(OC)c1 returns the recorded outcome of this test.
Result string: Y

Query string: GET /call?item= CN[C@H]1CC[C@@H](c2ccc(Cl)c(Cl)c2)c2ccc(S(N)(=O)=O)cc21 returns the recorded outcome of this test.
Result string: N

Query string: GET /call?item= CC1(C)CC(N=C=O)CC(C)(CN=C=O)C1 (configuration not stated) returns the recorded outcome of this test.
Result string: N

Query string: GET /call?item= CCCCCCC(=O)OCC returns the recorded outcome of this test.
Result string: N

Query string: GET /call?item= CNCc1cc(F)ccc1Oc1ccc(Cl)c(Cl)c1 returns the recorded outcome of this test.
Result string: N

Query string: GET /call?item= Oc1ccc2ccccc2c1N=Nc1ccccc1 returns the recorded outcome of this test.
Result string: N

Query string: GET /call?item= CCCCCCCCCCCCCCCCCC(=O)O returns the recorded outcome of this test.
Result string: N

Query string: GET /call?item= Cc1cccc([N+](=O)[O-])c1C returns the recorded outcome of this test.
Result string: N

Query string: GET /call?item= CCOc1ccc2c(c1)C(C)=CC(C)(C)N2 returns the recorded outcome of this test.
Result string: N
